Recorded values, source patent US8772489B2.

Experiment: Pharmacokinetics and bioavailability of Compound I-2 in rats (plasma Compound IV-1 by LC-MS/MS)
Assay type: in vivo, rat
Experimental Parameters: male, Sprague-Dawley, rat, plasma, iv, 8 μmol/kg, SD rats, intravenous injection 8 μmol/kg, 6 h, mean of 3; read-out: Concentration of Compound IV-1 in plasma, Mean
Parameter Measured: concentration at 6 h (ng/mL)

Molecule: COC(=O)[C@H](c1ccccc1Cl)N1CCC2SC(=O)C=C2C1 (stereo partly shown)
Readout Number: 1.11
